// provenance: ChEMBL document CHEMBL1201862

Test system: SK-OV-3
testDetails: NCI tumour cell line growth inhibition, 48 h
Activity calls are given as the source filed them. Cut-off read from the data, not from the text of the source: active = GI50 up to about 1.1 µM and inactive = higher.
Listed below: GI50 values for each entry.

[
  {
    "compound": "c1c[nH]c(C23C4C5C6C4C2C6C53)n1 (stereo not given)",
    "tgt": "SK-OV-3",
    "GI50": "> 100 µM (inactive)"
  },
  {
    "compound": "O=C(NC1CCC[C@H]1OC(=O)c1ccccc1)c1ccccc1 (stereo not given in full)",
    "tgt": "SK-OV-3",
    "GI50": "43.2 µM (inactive)"
  },
  {
    "compound": "CCC(c1ccc(OC)cc1)C1NC(=S)NC1=O (stereo not given)",
    "tgt": "SK-OV-3",
    "GI50": "> 50 µM (inactive)"
  },
  {
    "compound": "CC(=O)NCCC1CN(C(=O)/C=C\\I)c2ccccc21 (stereo not given)",
    "tgt": "SK-OV-3",
    "GI50": "20 µM (inactive)"
  },
  {
    "compound": "O=C1c2ccccc2-c2nc3ccncc3n21",
    "tgt": "SK-OV-3",
    "GI50": "> 100 µM (inactive)"
  }
]
